biological target: Peptidyl-prolyl cis-trans isomerase NIMA-interacting 1 (Homo sapiens, UniProt Q13526, S16A/Y23A); assay: Binding affinity to N-terminal MBP fused and Texas-red-labeled full-length human Pin1 S16A/Y23A mutant expressed in Escherichia coli assessed as increase in fluorescence anisotropy by spectrofluorimetry; settings: read-out: Kd
Sequence (Q13526 whole entry S16A/Y23A, the tested form may be a part): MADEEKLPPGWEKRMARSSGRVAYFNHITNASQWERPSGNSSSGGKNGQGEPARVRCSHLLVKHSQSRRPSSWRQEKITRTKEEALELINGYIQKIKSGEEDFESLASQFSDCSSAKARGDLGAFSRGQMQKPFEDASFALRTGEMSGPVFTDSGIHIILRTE
observable: pKd
As a rule, pKd stands for the negative log10 of the concentration, concentration in M.

[
  {
    "cpdSmiles": "C[C@@H]1NC(=O)[C@H](CCCNC(=N)N)NC(=O)[C@H](Cc2ccc3ccccc3c2)NC(=O)[C@@H]2CCCCN2C(=O)[C@@H]([C@H](C)OP(=O)(O)O)NC(=O)CN(C)C(=O)[C@@H](C)NC(=O)c2cc3cc(c2)C(=O)NC[C@H](NC(=O)[C@@H](C)NC1=O)C(=O)N[C@@H](Cc1ccccc1)C(=O)N[C@@H](Cc1ccc2ccccc2c1)C(=O)N[C@@H](CCCNC(=N)N)C(=O)N[C@@H](CCCNC(=N)N)C(=O)N[C@@H](CCCNC(=N)N)C(=O)N[C@@H](CCCNC(=N)N)C(=O)N[C@H](C(=O)N[C@@H](CCCCN)C(=O)O)CNC3=O",
    "pKd": 7.14
  },
  {
    "cpdSmiles": "C[C@H](OP(=O)(O)O)[C@H]1NC(=O)CN(C)C(=O)[C@@H](C)NC(=O)[C@H](CCCCN)NC(=O)[C@H](Cc2ccc(O)cc2)NC(=O)[C@H](Cc2ccc3ccccc3c2)NC(=O)[C@H]2CCCCN2C1=O",
    "pKd": 6.62
  },
  {
    "cpdSmiles": "C[C@@H]1NC(=O)CCNC(=O)[C@H](CCCNC(=N)N)NC(=O)[C@H](Cc2ccc3ccccc3c2)NC(=O)[C@H]2CCCCN2C(=O)[C@@H](CC(=O)O)NC(=O)CN(C)C(=O)[C@@H]2CCCN2C(=O)c2cc3cc(c2)C(=O)NC[C@@H](C(=O)N[C@@H](CCCCN)C(=O)O)NC(=O)[C@H](CCCNC(=N)N)NC(=O)[C@H](CCCNC(=N)N)NC(=O)[C@H](CCCNC(=N)N)NC(=O)[C@H](CCCNC(=N)N)NC(=O)[C@H](Cc2ccc4ccccc4c2)NC(=O)[C@H](Cc2ccccc2)NC(=O)[C@H](CNC3=O)NC1=O",
    "pKd": 5.76
  },
  {
    "cpdSmiles": "C[C@@H]1NC(=O)[C@H](CCCNC(=N)N)NC(=O)[C@H](Cc2ccc3ccccc3c2)NC(=O)[C@H]2CCCCN2C(=O)[C@@H]([C@H](C)O)NC(=O)[C@H](c2ccccc2)NC(=O)[C@H](Cc2cnc[nH]2)NC(=O)c2cc3cc(c2)C(=O)NC[C@H](NC(=O)[C@@H](C)NC1=O)C(=O)N[C@@H](Cc1ccccc1)C(=O)N[C@@H](Cc1ccc2ccccc2c1)C(=O)N[C@@H](CCCNC(=N)N)C(=O)N[C@@H](CCCNC(=N)N)C(=O)N[C@@H](CCCNC(=N)N)C(=O)N[C@@H](CCCNC(=N)N)C(=O)N[C@H](C(=O)N[C@@H](CCCCN)C(=O)O)CNC3=O",
    "pKd": 5.85
  }
]

Shift focus to the following entry.
Quick one: pKd of "CC[C@H](C)[C@@H]1NC(=O)[C@H](Cc2ccccc2)N(C)C(=O)c2cc3cc(c2)C(=O)NC[C@H](NC(=O)[C@@H](C)NC(=O)[C@H](C)NC(=O)[C@H](CCCNC(=N)N)NC(=O)[C@H](Cc2ccc4ccccc4c2)NC(=O)[C@H]2CCCCN2C(=O)[C@@H](CCC(=O)O)NC1=O)C(=O)N[C@@H](Cc1ccccc1)C(=O)N[C@@H](Cc1ccc2ccccc2c1)C(=O)N[C@@H](CCCNC(=N)N)C(=O)N[C@@H](CCCNC(=N)N)C(=O)N[C@@H](CCCNC(=N)N)C(=O)N[C@@H](CCCNC(=N)N)C(=O)N[C@H](C(=O)N[C@@H](CCCCN)C(=O)O)CNC3=O" ?
5.90

----------
Documented pKd across a set of compounds
biological target: Peptidyl-prolyl cis-trans isomerase NIMA-interacting 1 (Homo sapiens, UniProt Q13526, S16A/Y23A); experiment: Binding affinity to N-terminal MBP fused and Texas-red-labeled full-length human Pin1 S16A/Y23A mutant expressed in Escherichia coli assessed as increase in fluorescence anisotropy by spectrofluorimetry; conditions: read-out: Kd
Note on pKd: it is the negative log10 of concentration, concentration in mol/L.

Give the measured pKd of "C[C@@H]1NC(=O)[C@H](CCCNC(=N)N)NC(=O)[C@H](Cc2ccc3ccccc3c2)NC(=O)[C@H]2CCCCN2C(=O)[C@@H]([C@H](C)O)NC(=O)[C@H](Cc2ccc(F)cc2)NC(=O)[C@@H](Cc2ccccc2)NC(=O)c2cc3cc(c2)C(=O)NC[C@H](NC(=O)[C@@H](Cc2ccccc2)NC1=O)C(=O)N[C@H](CCCNC(=N)N)C(=O)N[C@@H](CCCNC(=N)N)C(=O)N[C@H](CCCNC(=N)N)C(=O)N[C@@H](CCCNC(=N)N)C(=O)N[C@@H](Cc1ccc2ccccc2c1)C(=O)N[C@@H](Cc1ccccc1)C(=O)N[C@H](C(=O)N[C@@H](CCCCN)C(=O)O)CNC3=O" .
5.51

Now consider "C[C@@H]1NC(=O)[C@H](CCCNC(=N)N)NC(=O)[C@H](Cc2ccc3ccccc3c2)NC(=O)[C@H]2CCCCN2C(=O)[C@@H](CC(=O)O)NC(=O)CN(C)C(=O)[C@@H]2CCCN2C(=O)c2cc3cc(c2)C(=O)NC[C@@H](C(=O)N[C@@H](CCCCN)C(=O)O)NC(=O)[C@H](CCCNC(=N)N)NC(=O)[C@H](CCCNC(=N)N)NC(=O)[C@H](CCCNC(=N)N)NC(=O)[C@H](CCCNC(=N)N)NC(=O)[C@H](Cc2ccc4ccccc4c2)NC(=O)[C@H](Cc2ccccc2)NC(=O)[C@H](CNC3=O)NC1=O" .
5.59

----------
Consider the following compounds and their measured Kd readings.
biological target: Peptidyl-prolyl cis-trans isomerase NIMA-interacting 1 (Homo sapiens, UniProt Q13526, S16A/Y23A); assay: Binding affinity to N-terminal MBP fused and Texas-red-labeled full-length human Pin1 S16A/Y23A mutant expressed in Escherichia coli assessed as increase in fluorescence anisotropy by spectrofluorimetry; details: read-out: Kd
Respond with the bare value in nM.

[
  {
    "cpdSmiles": "CN1CC(=O)N[C@H](CC(=O)O)C(=O)N2CCCC[C@@H]2C(=O)N[C@@H](Cc2ccc3ccccc3c2)C(=O)N[C@@H](CCCNC(=N)N)C(=O)NCCC(=O)NCCC(=O)N[C@H]2CNC(=O)c3cc(cc(c3)C(=O)N3CCC[C@H]3C1=O)C(=O)NC[C@@H](C(=O)N[C@@H](CCCCN)C(=O)O)NC(=O)[C@H](CCCNC(=N)N)NC(=O)[C@H](CCCNC(=N)N)NC(=O)[C@H](CCCNC(=N)N)NC(=O)[C@H](CCCNC(=N)N)NC(=O)[C@H](Cc1ccc3ccccc3c1)NC(=O)[C@H](Cc1ccccc1)NC2=O",
    "unitsOfMeasure": "nM",
    "Kd": 4830
  }
]

Consider now this further compound.
I'd like to know its Kd. The compound in question is "C[C@@H]1NC(=O)[C@H](CCCNC(=N)N)NC(=O)[C@H](Cc2ccc3ccccc3c2)NC(=O)[C@H]2CCCCN2C(=O)[C@@H]([C@H](C)O)NC(=O)CNC(=O)[C@H](Cc2ccccc2)N(C)C(=O)c2cc3cc(c2)C(=O)NC[C@H](NC(=O)[C@@H](C)NC1=O)C(=O)N[C@@H](Cc1ccccc1)C(=O)N[C@@H](Cc1ccc2ccccc2c1)C(=O)N[C@@H](CCCNC(=N)N)C(=O)N[C@@H](CCCNC(=N)N)C(=O)N[C@@H](CCCNC(=N)N)C(=O)N[C@@H](CCCNC(=N)N)C(=O)N[C@H](C(=O)N[C@@H](CCCCN)C(=O)O)CNC3=O"
1080

----------
target: Peptidyl-prolyl cis-trans isomerase NIMA-interacting 1 (Homo sapiens, UniProt Q13526, S16A/Y23A); assay: Binding affinity to N-terminal MBP fused and Texas-red-labeled full-length human Pin1 S16A/Y23A mutant expressed in Escherichia coli assessed as increase in fluorescence anisotropy by spectrofluorimetry; settings: read-out: Kd
Catalogue of pKd readings, one per entry.
Here pKd is given on a logarithmic scale as minus log10 of the concentration in mol/L.

What value of measured pKd is listed for "C[C@@H]1NC(=O)[C@H](CCCNC(=N)N)NC(=O)[C@H](Cc2ccc3ccccc3c2)NC(=O)[C@H]2CCCCN2C(=O)[C@@H]([C@H](C)O)NC(=O)[C@H](Cc2ccc(F)cc2)NC(=O)[C@@H](Cc2ccccc2)NC(=O)c2cc3cc(c2)C(=O)NC[C@H](NC(=O)[C@@H](C)NC1=O)C(=O)N[C@@H](Cc1ccccc1)C(=O)N[C@@H](Cc1ccc2ccccc2c1)C(=O)N[C@@H](CCCNC(=N)N)C(=O)N[C@@H](CCCNC(=N)N)C(=O)N[C@@H](CCCNC(=N)N)C(=O)N[C@@H](CCCNC(=N)N)C(=O)N[C@H](C(=O)N[C@@H](CCCCN)C(=O)O)CNC3=O" ?
6.17

Moving on to "C[C@@H]1NC(=O)[C@H](CCCNC(=N)N)NC(=O)[C@H](Cc2ccc3ccccc3c2)NC(=O)[C@H]2CCCCN2C(=O)[C@@H](CCC(=O)O)NC(=O)[C@H](Cc2cnc[nH]2)NC(=O)[C@H](c2ccccc2)NC(=O)c2cc3cc(c2)C(=O)NC[C@H](NC(=O)[C@@H](C)NC1=O)C(=O)N[C@@H](Cc1ccccc1)C(=O)N[C@@H](Cc1ccc2ccccc2c1)C(=O)N[C@@H](CCCNC(=N)N)C(=O)N[C@@H](CCCNC(=N)N)C(=O)N[C@@H](CCCNC(=N)N)C(=O)N[C@@H](CCCNC(=N)N)C(=O)N[C@H](C(=O)N[C@@H](CCCCN)C(=O)O)CNC3=O"
5.83
